assay: Metabolic stability in rat liver microsomes assessed as compound remaining at 10 uM after 30 mins by LC-MS analysis; details: human
Measurement kind: remaining at 0.5 h, 10 µM (%)

Task: If you can, please state the reported remaining at 0.5 h, 10 µM value of O=C1NCc2cc(O)cnc2N1 .
Result: 108

Task: If you can, please state the reported remaining at 0.5 h, 10 µM value of Cc1nc2c(c(C)c1O)COC(=O)N2 .
Result: 97

Task: If you can, please state the reported remaining at 0.5 h, 10 µM value of Cc1nc2c(c(C)c1O)CNC(=O)N2 .
Result: 87

----------
test system: HepG2; assay: Cytotoxicity against human HepG2 cells assessed as intracellular ATP level after 24 hrs by luciferase reporter gene assay; format: cell-based; conditions: HepG2, 24 h
Measurement kind: EC50 (mM)
Response body: numeric value in mM, unit text excluded.

Task: If you can, please state the reported EC50 value of CC(=O)Nc1ccc(O)cc1 [ACETAMINOPHEN] .
Result: 0.594

More entries:
Task: If you can, please state the reported EC50 value of O=C1NCc2cc(O)cnc2N1 .
Result: 4.76

Task: If you can, please state the reported EC50 value of Cc1nc2c(c(C)c1O)CNC(=O)N2 .
Result: 2.96

----------
target: Myoglobin (Homo sapiens, UniProt P02144); test: Inhibition of myoglobin (unknown origin)-mediated arachidonic acid oxidation using [14C]AA as substrate after 3 hrs by GC/NICI/MS analysis
Sequence (P02144 whole entry): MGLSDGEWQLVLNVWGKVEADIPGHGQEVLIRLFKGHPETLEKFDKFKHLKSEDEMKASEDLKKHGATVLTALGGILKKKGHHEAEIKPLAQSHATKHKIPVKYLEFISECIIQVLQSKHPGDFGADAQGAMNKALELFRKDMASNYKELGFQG
Measurement kind: IC50 (nM)
Response body: numeric value in nM, unit text excluded.

Task: If you can, please state the reported IC50 value of CC(=O)Nc1ccc(O)cc1 .
Result: 2300
